Numbers sourced from ChEMBL document CHEMBL3603777.

- test: Cytotoxicity against African green monkey Vero cells after 24 hrs by MTT assay
- Assay type: cell-based
- test.conditions: chlorocebus sabaeus
This section presents compounds with their documented CC50 at 24 h values.
measured.attribute: CC50 at 24 h (µg/mL)

>>> reported_value("COC(=O)CCc1ccc(O)c(O)c1")
100
>>> reported_value("CC(=O)OCCc1ccc(O)c(O)c1")
100
>>> reported_value("CCOC(=O)CCc1ccc(O)c(O)c1")
75
>>> reported_value("CCCCC(=O)OCCc1ccc(O)c(O)c1")
25
>>> reported_value("CCCC(=O)OCCc1ccc(O)c(O)c1 [HYDROXYTYROSOL BUTANOATE]")
100
>>> reported_value("CCCCOC(=O)CCc1ccc(O)c(O)c1")
200
>>> reported_value("CCC(=O)OCCc1ccc(O)c(O)c1")
40

----------
This section presents molecules with their documented CC50 at 24 h values.
- test: Cytotoxicity against human HFF1 cells after 24 hrs by MTT assay
- Format: cell-based, HFF-1
measured.attribute: CC50 at 24 h (µg/mL)

>>> reported_value("CC(=O)OCCc1ccc(O)c(O)c1")
50
>>> reported_value("COC(=O)CCc1ccc(O)c(O)c1")
100
>>> reported_value("CCC(=O)OCCc1ccc(O)c(O)c1")
40
>>> reported_value("CCCCOC(=O)CCc1ccc(O)c(O)c1")
100
>>> reported_value("CCCCC(=O)OCCc1ccc(O)c(O)c1")
25
>>> reported_value("CCOC(=O)CCc1ccc(O)c(O)c1")
40
>>> reported_value("CCCC(=O)OCCc1ccc(O)c(O)c1 [HYDROXYTYROSOL BUTANOATE]")
100

----------
This section presents compounds with their documented CC50 at 24 h values.
- test: Cytotoxicity against human Hep2 cells after 24 hrs by MTT assay
- Type: cell-based, HEp-2
measured.attribute: CC50 at 24 h (µg/mL)

>>> reported_value("CC(=O)OCCc1ccc(O)c(O)c1")
50
>>> reported_value("CCCCC(=O)OCCc1ccc(O)c(O)c1")
25
>>> reported_value("CCCC(=O)OCCc1ccc(O)c(O)c1 [HYDROXYTYROSOL BUTANOATE]")
100
>>> reported_value("CCC(=O)OCCc1ccc(O)c(O)c1")
40
>>> reported_value("COC(=O)CCc1ccc(O)c(O)c1")
100
>>> reported_value("CCOC(=O)CCc1ccc(O)c(O)c1")
40
>>> reported_value("CCCCOC(=O)CCc1ccc(O)c(O)c1")
200

----------
This section presents molecules with their documented IC50 values.
- Test system: Human adenovirus 5
- test: Antiviral activity against Adenovirus type 5 VR-1523 infected in human Hep2 cells assessed as inhibition of virus-induced plaque formation/cytopathogenicity
- Format: functional
- test.conditions: Human mastadenovirus C, VR-1523, HEp-2; read-out: ID50 (the source's name)
measured.attribute: IC50

>>> reported_value("CCC(=O)OCCc1ccc(O)c(O)c1")
"> 40 µg/mL"
>>> reported_value("CC(=O)OCCc1ccc(O)c(O)c1")
"> 50 µg/mL"
>>> reported_value("CCCCC(=O)OCCc1ccc(O)c(O)c1")
"> 25 µg/mL"
>>> reported_value("CCCC(=O)OCCc1ccc(O)c(O)c1 [HYDROXYTYROSOL BUTANOATE]")
"> 100 µg/mL"
>>> reported_value("CCCCOC(=O)CCc1ccc(O)c(O)c1")
"> 200 µg/mL"
>>> reported_value("CCOC(=O)CCc1ccc(O)c(O)c1")
"> 40 µg/mL"
>>> reported_value("CCCOC(=O)CCc1ccc(O)c(O)c1")
"> 200 µg/mL"
>>> reported_value("O=C(O)CCc1ccc(O)c(O)c1 [DIHYDROCAFFEIC ACID]")
"> 200 µg/mL"
>>> reported_value("COC(=O)CCc1ccc(O)c(O)c1")
"> 100 µg/mL"

----------
- System: Coxsackievirus B3
- test: Antiviral activity against Coxsackie type B3 virus VR-1034 infected in African green monkey Vero cells assessed as inhibition of virus-induced plaque formation/cytopathogenicity
- Type: functional
- test.conditions: Enterovirus B, VR-1034, Vero; read-out: ID50 (the source's name)
This section presents compounds with their documented IC50 values.
measured.attribute: IC50

>>> reported_value("COC(=O)CCc1ccc(O)c(O)c1")
"> 100 µg/mL"
>>> reported_value("CCCCOC(=O)CCc1ccc(O)c(O)c1")
"100 µg/mL"
>>> reported_value("CCCOC(=O)CCc1ccc(O)c(O)c1")
"> 200 µg/mL"
>>> reported_value("CC(=O)OCCc1ccc(O)c(O)c1")
"50 µg/mL"
>>> reported_value("CCOC(=O)CCc1ccc(O)c(O)c1")
"20 µg/mL"
>>> reported_value("O=C(O)CCc1ccc(O)c(O)c1 [DIHYDROCAFFEIC ACID]")
"> 200 µg/mL"
>>> reported_value("CCCC(=O)OCCc1ccc(O)c(O)c1 [HYDROXYTYROSOL BUTANOATE]")
"> 100 µg/mL"
>>> reported_value("CCCCC(=O)OCCc1ccc(O)c(O)c1")
"> 25 µg/mL"
>>> reported_value("CCC(=O)OCCc1ccc(O)c(O)c1")
"> 40 µg/mL"
